Test system: FAM-Pu22 (DNA, G4) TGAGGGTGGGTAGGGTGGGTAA
Test: microscale thermophoresis
Details: 150 mM KCl; 10 mM Tris-HCl, pH 7.4
Task for the reader: assign each of the following compounds its reported K D MST.
Please format your answer as a value with the unit trailing.

A selection of reference data follows.
# Structure string, Experimental target, K D MST
rows = [
    ("c1ccc2c(c1)ccn2CCCN1CCCC1", "FAM-Pu22 (DNA, G4) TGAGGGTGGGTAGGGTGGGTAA", "15110 ± 300 nM"),
    ("O=[N+]([O-])c1ccc2[nH]cc(CNCCN3CCCC3)c2c1", "FAM-Pu22 (DNA, G4) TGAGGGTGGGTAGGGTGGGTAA", "5520 ± 610 nM"),
    ("Cn1ccc2cc(N)ccc21", "FAM-Pu22 (DNA, G4) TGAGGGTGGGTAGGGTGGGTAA", "2320 ± 410 nM"),
    ("O=[N+]([O-])c1ccc2c(ccn2CCCN2CCCC2)c1", "FAM-Pu22 (DNA, G4) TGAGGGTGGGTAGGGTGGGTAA", "1490 ± 120 nM"),
    ("O=[N+]([O-])c1ccc2c(c1)c(CNCCN1CCCC1)cn2CCCN1CCCC1", "FAM-Pu22 (DNA, G4) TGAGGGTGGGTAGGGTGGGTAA", "1300 ± 210 nM"),
]

Please go through the list and note K D MST for each compound.
1. CN(C)Cc1c[nH]c2ccc(N)cc12
2. CN(C)Cc1c[nH]c2ccc([N+](=O)[O-])cc12
3. Nc1ccc2c(ccn2CCCN2CCCC2)c1
4. Cc1cc2cc(N)ccc2n1C

Reply text:
2210 ± 890 nM
13220 ± 800 nM
2860 ± 330 nM
17180 ± 540 nM

----------
Test system: c-Myc (Pu22) (DNA, G4) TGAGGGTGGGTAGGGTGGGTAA
Assay: 1H NMR
Details: 70 mM KCl, 25 mM KPi; pH 7, 298 K, 10% DMSO-d6, 0.1 mM DNA
Observation type: binding

# Structure string, Experimental target, Observation type, Measurement
data = [
    ("Cn1ccc2cc(N)ccc21", "c-Myc (Pu22) (DNA, G4) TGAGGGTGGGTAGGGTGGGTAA", "binding", "weak"),
    ("O=[N+]([O-])c1ccc2c(ccn2CCCN2CCCC2)c1", "c-Myc (Pu22) (DNA, G4) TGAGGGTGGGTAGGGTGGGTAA", "binding", "yes"),
    ("O=[N+]([O-])c1ccc2[nH]cc(CNCCN3CCCC3)c2c1", "c-Myc (Pu22) (DNA, G4) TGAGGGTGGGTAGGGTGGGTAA", "binding", "yes"),
    ("CN(C)Cc1c[nH]c2ccc(N)cc12", "c-Myc (Pu22) (DNA, G4) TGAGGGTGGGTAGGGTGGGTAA", "binding", "weak"),
]

----------
System: FAM-Pu22 (DNA, G4) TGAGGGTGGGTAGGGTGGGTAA
Test: fluorescence intensity titration of labelled DNA
Conditions: 150 mM KCl; 10 mM Tris-HCl, pH 7.4, RT, 2-3% DMSO, 50 nM DNA
Checkbox rule: K D FAM lower than 8 µM = label 1; K D FAM not lower than 8 µM = label 0.

Study these solved cases before continuing.
# Structure string, Experimental target, Class assignment
rows = [
    ("O=[N+]([O-])c1ccc2c(ccn2CCCN2CCCC2)c1", "FAM-Pu22 (DNA, G4) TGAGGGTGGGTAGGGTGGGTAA", "label 1"),
    ("Nc1ccc2c(ccn2CCCN2CCCC2)c1", "FAM-Pu22 (DNA, G4) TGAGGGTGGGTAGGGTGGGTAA", "label 1"),
    ("CN(C)Cc1c[nH]c2ccc(N)cc12", "FAM-Pu22 (DNA, G4) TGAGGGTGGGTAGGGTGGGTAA", "label 1"),
    ("O=[N+]([O-])c1ccc2c(c1)c(CNCCN1CCCC1)cn2CCCN1CCCC1", "FAM-Pu22 (DNA, G4) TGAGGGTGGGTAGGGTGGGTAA", "label 1"),
    ("c1ccc2c(c1)ccn2CCCN1CCCC1", "FAM-Pu22 (DNA, G4) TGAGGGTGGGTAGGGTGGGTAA", "label 0"),
]

Inquiry: Hello, I'm reviewing records and need to know if K D FAM of "Cn1ccc2cc(N)ccc21" is below 8 µM. Could you check?
Reply text: label 1

Inquiry: Try this molecule too: "Cc1cc2cc(N)ccc2n1C"
Reply text: label 0

Inquiry: Item: "O=[N+]([O-])c1ccc2[nH]cc(CNCCN3CCCC3)c2c1"
Reply text: label 1

Inquiry: Could you do the same for "CN(C)Cc1c[nH]c2ccc([N+](=O)[O-])cc12" , please?
Reply text: label 0
